Target Desc: AURKA (human) (UniProt O14965)
Sequence (O14965 whole entry, looked up): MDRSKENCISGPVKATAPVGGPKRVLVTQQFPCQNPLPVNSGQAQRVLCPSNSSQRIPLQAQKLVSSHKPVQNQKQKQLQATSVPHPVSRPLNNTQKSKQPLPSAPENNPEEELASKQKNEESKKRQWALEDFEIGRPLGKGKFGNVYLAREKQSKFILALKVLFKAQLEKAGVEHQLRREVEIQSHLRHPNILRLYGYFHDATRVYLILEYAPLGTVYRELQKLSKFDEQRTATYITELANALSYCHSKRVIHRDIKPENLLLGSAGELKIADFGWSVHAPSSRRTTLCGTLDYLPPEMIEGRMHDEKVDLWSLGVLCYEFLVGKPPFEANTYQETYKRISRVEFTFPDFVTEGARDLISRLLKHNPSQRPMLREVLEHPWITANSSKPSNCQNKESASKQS
Protocol Notes: radiometric filter-binding kinase assay
Conditions Used: compound 1.0 µM
// values below are reported residual activity
// return numeric value only (unit: %, not printed)

Known results for molecules:
{"columns": ["Molecule", "Unit Name", "residual activity"],
 "data": [
  ["COc1ccc(-n2ncc3cnc(Nc4cc(OC)c(OC)c(OCCCN5CCN(C)CC5)c4)nc32)cc1", "%", 3],
  ["COc1cc2ncn(-c3cc(OCc4ccccc4S(C)(=O)=O)c(C#N)s3)c2cc1OC", "%", 29],
  ["CC1=C(CO)C(=O)O[C@@H]([C@@H](C)[C@H]2CC[C@H]3[C@@H]4C[C@H]5O[C@]56[C@@H](O)C=CC(=O)[C@]6(C)C4CC[C@]23C)C1 (some centres undefined)", "%", 102],
  ["NC1(c2ccc(-c3nc4ccn5c(=O)[nH]nc5c4cc3-c3ccccc3)cc2)CCC1", "%", 89],
  ["FC(F)(F)c1ccc(-c2ccc(Oc3cncc4sc(-c5nn[nH]n5)cc34)cc2)cc1", "%", 108],
  ["CCCCCc1ccc(/C=C/[C@H](O)[C@@H](CO)NC)cc1", "%", 105],
  ["Cc1cc(NC(=O)c2cccc(NC(=O)/C=C/CN(C)C)c2)ccc1Nc1nccc(-c2cccnc2)n1", "%", 91],
  ["O=C(NOC[C@H](O)CO)c1ccc(F)c(F)c1Nc1ccc(I)cc1Cl", "%", 112]
]}

Given COc1ccc(N(C(=O)Nc2c(C)cccc2C)c2cc(Nc3ccc(N4CCN(C)CC4)cc3)ncn2)c(OC)c1 , state its recorded residual activity.
70
